- Target or test system: T1, transforming growth factor-beta 2 (TGF-β2) (UniProt P61812 303-414)
- T1 construct: also called TGFb2; TGFB2
- T1 sequence (looked up): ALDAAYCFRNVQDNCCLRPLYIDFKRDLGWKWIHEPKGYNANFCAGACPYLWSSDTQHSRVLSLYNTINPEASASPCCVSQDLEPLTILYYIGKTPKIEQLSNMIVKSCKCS
- Experiment: ELISA, peptide on streptavidin plate, ligand 100 ng/ml
- Method: Biotinylated synthetic peptide fragments from CLPTM1 (JPT peptides, Germany) were immobilized in a streptavidin 96 well plate (#15500 Pierce) at 1 μM in PBS over night at +4° C. Plate was then washed 4 times in 300 μl PBS with 0.05% tween-20 (wash buffer). The plate was then blocked with PBS 1% BSA and 0.05% tween-20 (blocking buffer) for 1.5 hours at room temperature, then washed 4 times in wash buffer. […] OD 450-620 was measured in an ELISA reader.
Ends that are not written are not given here.
Observed property: ELISA OD450 (OD450)

Consider the following illustrative entries.
Binder	Observed property	Numeric value
DTLMNLHVYISEHEHFTDFNATSALFWEQHDLVYGDWTSG (also: biotinylated, site not given here, also called peptide 29; GT5) [CLPTM1 peptide fragment of SEQ ID NO: 36]	ELISA OD450	0.838
WQVIKGVLFRIFIIWAISSWG (also: biotinylated, site not given here) [CLPTM1 peptide fragment of SEQ ID NO: 29]	ELISA OD450	0.006
SALFWEQHDLVYGDWTSGENG (also: biotinylated, site not given here) [CLPTM1 peptide fragment of SEQ ID NO: 14]	ELISA OD450	0.002

a: FTDFNATSALFWEQHDLVYGG (also: biotinylated, site not given here) [CLPTM1 peptide fragment of SEQ ID NO: 31]
b: LWRWQLYAAQSTKSPWNFLGG (also: biotinylated, site not given here) [CLPTM1 peptide fragment of SEQ ID NO: 26]
Ask: // returns a or b , whichever has the lower ELISA OD450 Return value: the label identifying the chosen record.
Reply: b
